Tested on: HeLa cells
Assay: CellTiter-Glo cell viability assay (24 h), HeLa
Assay type: cell-based, human
Conditions: Homo sapiens, HeLa, 24 h, CellTiter-Glo
Experimental: The compounds in this work were tested for their in vitro inhibitory effect on the viability of the HeLa (cancerous) cell line using the CellTiter-Glo® 2.0 cell viability assay (24 h). […] The cytotoxicity of the synthesized compounds was tested using cell lines of cervical cancer (HeLa) and mouse fibroblasts (NIH/3T3). […] Cytotoxicity was measured as cell viability with the CellTiter-Glo® Luminescent Cell Viability Assay (Promega, Madison, WI, USA) according to the manufacturer’s protocol. […]
measurementLabel: IC50 (µM)

Below: 2 molecules and their reported IC50.
• OC[C@H]1O[C@@H](n2cnc3c(=S)n4cc[nH]c4nc32)[C@H](O)[C@@H]1O [TEGuo, 9-thio-1,N^2-ethenoguanosine] = 80.2
• Cc1cn2c(=S)c3ncn([C@@H]4O[C@H](CO)[C@@H](O)[C@H]4O)c3nc2[nH]1 [6-Me-TEGuo, 6-methyl-9-thio-1,N^2-ethenoguanosine] = 55.8

a: S=c1c2nc[nH]c2nc2[nH]ccn12 [TEGua, 9-thio-1,N^2-ethenoguanine]
b: Cc1cn2c(=S)c3nc[nH]c3nc2[nH]1 [6-Me-TEGua, 6-methyl-9-thio-1,N^2-ethenoguanine]
Query string: I'm curious, which of these has a smaller IC50 number: a or b ? Let me know the label of the one you choose.
Result string: b
(b: 78.2 µM, a: 137 µM)
